system tested: purified enkephalinase Al (Rattus norvegicus, UniProt P07861)
Construct: the solubilised enzymes contained in the supernatant separated by DEAE-cellulose column chromatography; from tissue; host or cells: rat striatum, washed membrane pellet solubilised with Triton X-100, DEAE-cellulose then Sephacryl S.300
Sequence (P07861 1-750): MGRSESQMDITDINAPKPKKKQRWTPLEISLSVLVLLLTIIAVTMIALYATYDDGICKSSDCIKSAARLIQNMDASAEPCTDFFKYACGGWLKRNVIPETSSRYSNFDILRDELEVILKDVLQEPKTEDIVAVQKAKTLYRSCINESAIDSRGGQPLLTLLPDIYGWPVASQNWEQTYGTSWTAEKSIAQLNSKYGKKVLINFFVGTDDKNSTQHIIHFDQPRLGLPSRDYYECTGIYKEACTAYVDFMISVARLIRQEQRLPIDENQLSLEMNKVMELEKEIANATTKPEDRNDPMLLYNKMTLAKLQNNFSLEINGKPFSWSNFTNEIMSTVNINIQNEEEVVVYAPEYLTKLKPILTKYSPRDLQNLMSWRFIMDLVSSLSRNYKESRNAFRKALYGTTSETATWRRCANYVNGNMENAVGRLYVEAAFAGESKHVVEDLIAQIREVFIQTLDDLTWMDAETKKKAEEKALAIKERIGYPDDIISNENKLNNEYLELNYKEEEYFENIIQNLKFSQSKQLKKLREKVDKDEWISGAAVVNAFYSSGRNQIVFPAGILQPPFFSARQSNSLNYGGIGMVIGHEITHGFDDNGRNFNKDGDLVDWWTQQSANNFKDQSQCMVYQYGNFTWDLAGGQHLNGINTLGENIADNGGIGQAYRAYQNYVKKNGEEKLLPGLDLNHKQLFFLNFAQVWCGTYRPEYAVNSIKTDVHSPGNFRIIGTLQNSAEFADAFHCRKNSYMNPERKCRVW
method summary: Enkephalinase-inhibiting activity in vitro (inhibition of 3H-TGG generation from 3H-leucine enkephalin)
Type: biochemical
stated conditions: approximate, determined graphically; leucine enkephalin 5×10^-5 M; 30° C.; 30 min with enzyme; read-out: IC50 (concentration of test compound required for 50% inhibition of 3H-TGG generation)
Experimental: The compounds were investigated for enkephalinase-inhibiting activity using the following method. Purified enkephalinase Al was obtained according to the following procedure (modification of the method of Gorenstein and Snyder, Life Science, Vol. 25, pages 2065-2070, 1979). Rats were killed by decapitation and the striata dissected out on ice. The pooled tissues were homogenised in ice-cold Tris/hydrochloric acid buffer (50 mM, pH 7.70, 30 ml per gram of tissue) and centrifuged (50,000 g, 15 mins). […]
pIC50: −log10 of the molar value. Counter-ions that a name gives are not always drawn.
The class of a record is decided solely by its measured pIC50; consult low group (below 5), middle group (5 to below 6), high group (6 or more)

Before answering, review these 5 worked examples.
Sort CC(C)C[C@H](NC(=O)C(Cc1ccccc1)CP(=O)(O)O)C(=O)O (single isomer, unassigned) [compound 13] into one of the categories.
high group

Moving on to the next compound: CC(C)C[C@H](NC(=O)C(Cc1ccc(Br)cc1)P(=O)(O)O)C(=O)O (stereo partly drawn) [Compound No. 9, monosodium salt]
middle group

Lookup C[C@H](CS)C(=O)N1CCC[C@H]1C(=O)O [Captopril, reference compound]
low group

Same lookup for CCOC(=O)[C@H](CC(C)C)NC(=O)C(Cc1ccccc1)P(=O)(O)O (stereo partly drawn) [compound 4] , please.
high group

Request: CCOC(=O)[C@H](CC(C)C)NC(=O)C(Cc1ccccc1)CP(=O)(O)O (single isomer, unassigned) [compound 12]
low group

Further cases:
GET /class?item= CC(C)C[C@H](NC(=O)C(Cc1ccccc1)CP(=O)(O)O)C(=O)O (single isomer, unassigned) [compound 14]
low group

Now this one: CC(C)C[C@H](NC(=O)C(Cc1ccccc1)P(=O)(O)O)C(=O)O (stereo partly drawn) [compound 6, tri-lithium salt]
high group

Follow-up entry: COc1ccc(CC(C(=O)N[C@@H](CC(C)C)C(=O)O)P(=O)(O)O)cc1 (single isomer, unassigned)
middle group

Param item: CC(C)C[C@H](NC(=O)C(Cc1ccc(C(C)C)cc1)P(=O)(O)O)C(=O)O (stereo partly drawn) [Compound No. 10, disodium salt]
low group
